The reported numbers originate from patent US20210255193A1.

Biological target: PSME3 Proteasome activator complex subunit 3 (Homo sapiens, UniProt P61289)
Construct: isoTOP-ABPP experiments performed in cell lysates (in vitro); endogenous in cells; host or cells: soluble proteome of human cancer cell lines (MDA-MB-231, Ramos, Jurkat)
Sequence (P61289 whole entry, one chain of several): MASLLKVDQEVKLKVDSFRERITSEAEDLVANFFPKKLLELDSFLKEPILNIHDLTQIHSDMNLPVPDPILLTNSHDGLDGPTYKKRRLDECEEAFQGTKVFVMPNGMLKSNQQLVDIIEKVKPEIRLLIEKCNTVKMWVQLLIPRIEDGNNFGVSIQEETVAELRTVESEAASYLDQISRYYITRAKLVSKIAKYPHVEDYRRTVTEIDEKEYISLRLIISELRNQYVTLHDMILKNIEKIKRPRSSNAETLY
Test: competitive isoTOP-ABPP
Type: binding
Settings: P61289_K12; 50 uM, 231 sol, in vitro
Description: In vitro covalent fragment treatment for isoTOP-ABPP. All compounds were made up as solutions in DMSO (100×) and were used at a final concentration of 50 μM for activated esters and 100 μM for guanidinylating agents. […] R value calculation and processing. The ratios of light and heavy MS1 peaks for each unique peptide were quantified with a CIMAGE software using default parameters (3 MS1 acquisitions per peak and signal to noise threshold set to 2.5). […]
ASSAY_METRIC: R value (DMSO/fragment) for probe 1 labeling

# MOLECULE, MEASURED_ON, RECORDED_RESULT
rows = [
    ("O=C(CCc1cn(-c2ccccc2)nc1-c1ccccc1)Oc1c(F)c(F)c(F)c(F)c1F [fragment 19]", "PSME3 Proteasome activator complex subunit 3 (Homo sapiens, UniProt P61289)", 1.0),
    ("O=C(Oc1c(F)c(F)c(F)c(F)c1F)C(c1ccccc1)c1ccccc1 [fragment 20, Pentafluorophenyl 2,2-diphenylacetate]", "PSME3 Proteasome activator complex subunit 3 (Homo sapiens, UniProt P61289)", 0.9),
    ("O=C(Oc1c(F)c(F)c(F)c(F)c1F)c1cc(C(F)(F)F)cc(C(F)(F)F)c1 [fragment 21]", "PSME3 Proteasome activator complex subunit 3 (Homo sapiens, UniProt P61289)", 1.0),
    ("Cn1cc(CC(=O)Oc2c(F)c(F)c(F)c(F)c2F)c2ccccc21 [fragment 22]", "PSME3 Proteasome activator complex subunit 3 (Homo sapiens, UniProt P61289)", 0.9),
]

----------
Biological target: TSTA3 GDP-L-fucose synthase (Homo sapiens, UniProt Q13630)
Construct: isoTOP-ABPP experiments performed in cell lysates (in vitro); endogenous in cells; host or cells: soluble proteome of human cancer cell lines (MDA-MB-231, Ramos, Jurkat)
Sequence (Q13630 whole entry): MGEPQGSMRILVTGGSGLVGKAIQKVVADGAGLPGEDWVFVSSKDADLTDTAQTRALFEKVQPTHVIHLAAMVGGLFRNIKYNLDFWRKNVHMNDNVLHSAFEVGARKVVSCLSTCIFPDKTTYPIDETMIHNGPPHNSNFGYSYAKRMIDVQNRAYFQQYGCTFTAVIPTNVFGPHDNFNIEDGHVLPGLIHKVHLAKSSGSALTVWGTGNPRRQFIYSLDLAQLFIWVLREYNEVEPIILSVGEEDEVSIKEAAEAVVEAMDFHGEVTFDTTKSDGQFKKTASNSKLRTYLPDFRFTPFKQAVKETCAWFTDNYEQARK
Assay: competitive isoTOP-ABPP
Format: binding
Settings: 50 uM, 231 sol, in vitro
ASSAY_METRIC: isoTOP-ABPP reactivity ratio at lysine Q13630_K108

Previously resolved entries follow.
# SMILES_CODE, RECORDED_RESULT
measured = [
    ("CCn1cc(C(=O)Oc2c(F)c(F)c(F)c(F)c2F)c(=O)c2ccc(C)nc21", 1.0),
    ("O=C(CCc1cn(-c2ccccc2)nc1-c1ccccc1)Oc1ccc([N+](=O)[O-])cc1[N+](=O)[O-]", 1.1),
    ("COc1cc(CCC(=O)Oc2ccc([N+](=O)[O-])cc2[N+](=O)[O-])cc(OC)c1OC", 1.2),
]

A. O=C(CCc1coc2cc(F)ccc2c1=O)Oc1c(F)c(F)c(F)c(F)c1F
B. O=C(CN1C(=O)c2ccccc2C1=O)Oc1c(F)c(F)c(F)c(F)c1F
C. O=C(Oc1c(F)c(F)c(F)c(F)c1F)C1CCN(C(=O)OCc2ccccc2)CC1
Ranking field: isoTOP-ABPP reactivity ratio at lysine Q13630_K108; order: falling. Please write the labels in the order that was asked for. B, A, C
(B: 4.6, A: 1.4, C: 0.6)

----------
Molecular target: GOLGB1 Golgin subfamily B member 1 (Homo sapiens, UniProt Q14789)
Construct: isoTOP-ABPP experiments performed in cell lysates (in vitro); endogenous in cells; host or cells: soluble proteome of human cancer cell lines (MDA-MB-231, Ramos, Jurkat)
Sequence (Q14789 whole entry): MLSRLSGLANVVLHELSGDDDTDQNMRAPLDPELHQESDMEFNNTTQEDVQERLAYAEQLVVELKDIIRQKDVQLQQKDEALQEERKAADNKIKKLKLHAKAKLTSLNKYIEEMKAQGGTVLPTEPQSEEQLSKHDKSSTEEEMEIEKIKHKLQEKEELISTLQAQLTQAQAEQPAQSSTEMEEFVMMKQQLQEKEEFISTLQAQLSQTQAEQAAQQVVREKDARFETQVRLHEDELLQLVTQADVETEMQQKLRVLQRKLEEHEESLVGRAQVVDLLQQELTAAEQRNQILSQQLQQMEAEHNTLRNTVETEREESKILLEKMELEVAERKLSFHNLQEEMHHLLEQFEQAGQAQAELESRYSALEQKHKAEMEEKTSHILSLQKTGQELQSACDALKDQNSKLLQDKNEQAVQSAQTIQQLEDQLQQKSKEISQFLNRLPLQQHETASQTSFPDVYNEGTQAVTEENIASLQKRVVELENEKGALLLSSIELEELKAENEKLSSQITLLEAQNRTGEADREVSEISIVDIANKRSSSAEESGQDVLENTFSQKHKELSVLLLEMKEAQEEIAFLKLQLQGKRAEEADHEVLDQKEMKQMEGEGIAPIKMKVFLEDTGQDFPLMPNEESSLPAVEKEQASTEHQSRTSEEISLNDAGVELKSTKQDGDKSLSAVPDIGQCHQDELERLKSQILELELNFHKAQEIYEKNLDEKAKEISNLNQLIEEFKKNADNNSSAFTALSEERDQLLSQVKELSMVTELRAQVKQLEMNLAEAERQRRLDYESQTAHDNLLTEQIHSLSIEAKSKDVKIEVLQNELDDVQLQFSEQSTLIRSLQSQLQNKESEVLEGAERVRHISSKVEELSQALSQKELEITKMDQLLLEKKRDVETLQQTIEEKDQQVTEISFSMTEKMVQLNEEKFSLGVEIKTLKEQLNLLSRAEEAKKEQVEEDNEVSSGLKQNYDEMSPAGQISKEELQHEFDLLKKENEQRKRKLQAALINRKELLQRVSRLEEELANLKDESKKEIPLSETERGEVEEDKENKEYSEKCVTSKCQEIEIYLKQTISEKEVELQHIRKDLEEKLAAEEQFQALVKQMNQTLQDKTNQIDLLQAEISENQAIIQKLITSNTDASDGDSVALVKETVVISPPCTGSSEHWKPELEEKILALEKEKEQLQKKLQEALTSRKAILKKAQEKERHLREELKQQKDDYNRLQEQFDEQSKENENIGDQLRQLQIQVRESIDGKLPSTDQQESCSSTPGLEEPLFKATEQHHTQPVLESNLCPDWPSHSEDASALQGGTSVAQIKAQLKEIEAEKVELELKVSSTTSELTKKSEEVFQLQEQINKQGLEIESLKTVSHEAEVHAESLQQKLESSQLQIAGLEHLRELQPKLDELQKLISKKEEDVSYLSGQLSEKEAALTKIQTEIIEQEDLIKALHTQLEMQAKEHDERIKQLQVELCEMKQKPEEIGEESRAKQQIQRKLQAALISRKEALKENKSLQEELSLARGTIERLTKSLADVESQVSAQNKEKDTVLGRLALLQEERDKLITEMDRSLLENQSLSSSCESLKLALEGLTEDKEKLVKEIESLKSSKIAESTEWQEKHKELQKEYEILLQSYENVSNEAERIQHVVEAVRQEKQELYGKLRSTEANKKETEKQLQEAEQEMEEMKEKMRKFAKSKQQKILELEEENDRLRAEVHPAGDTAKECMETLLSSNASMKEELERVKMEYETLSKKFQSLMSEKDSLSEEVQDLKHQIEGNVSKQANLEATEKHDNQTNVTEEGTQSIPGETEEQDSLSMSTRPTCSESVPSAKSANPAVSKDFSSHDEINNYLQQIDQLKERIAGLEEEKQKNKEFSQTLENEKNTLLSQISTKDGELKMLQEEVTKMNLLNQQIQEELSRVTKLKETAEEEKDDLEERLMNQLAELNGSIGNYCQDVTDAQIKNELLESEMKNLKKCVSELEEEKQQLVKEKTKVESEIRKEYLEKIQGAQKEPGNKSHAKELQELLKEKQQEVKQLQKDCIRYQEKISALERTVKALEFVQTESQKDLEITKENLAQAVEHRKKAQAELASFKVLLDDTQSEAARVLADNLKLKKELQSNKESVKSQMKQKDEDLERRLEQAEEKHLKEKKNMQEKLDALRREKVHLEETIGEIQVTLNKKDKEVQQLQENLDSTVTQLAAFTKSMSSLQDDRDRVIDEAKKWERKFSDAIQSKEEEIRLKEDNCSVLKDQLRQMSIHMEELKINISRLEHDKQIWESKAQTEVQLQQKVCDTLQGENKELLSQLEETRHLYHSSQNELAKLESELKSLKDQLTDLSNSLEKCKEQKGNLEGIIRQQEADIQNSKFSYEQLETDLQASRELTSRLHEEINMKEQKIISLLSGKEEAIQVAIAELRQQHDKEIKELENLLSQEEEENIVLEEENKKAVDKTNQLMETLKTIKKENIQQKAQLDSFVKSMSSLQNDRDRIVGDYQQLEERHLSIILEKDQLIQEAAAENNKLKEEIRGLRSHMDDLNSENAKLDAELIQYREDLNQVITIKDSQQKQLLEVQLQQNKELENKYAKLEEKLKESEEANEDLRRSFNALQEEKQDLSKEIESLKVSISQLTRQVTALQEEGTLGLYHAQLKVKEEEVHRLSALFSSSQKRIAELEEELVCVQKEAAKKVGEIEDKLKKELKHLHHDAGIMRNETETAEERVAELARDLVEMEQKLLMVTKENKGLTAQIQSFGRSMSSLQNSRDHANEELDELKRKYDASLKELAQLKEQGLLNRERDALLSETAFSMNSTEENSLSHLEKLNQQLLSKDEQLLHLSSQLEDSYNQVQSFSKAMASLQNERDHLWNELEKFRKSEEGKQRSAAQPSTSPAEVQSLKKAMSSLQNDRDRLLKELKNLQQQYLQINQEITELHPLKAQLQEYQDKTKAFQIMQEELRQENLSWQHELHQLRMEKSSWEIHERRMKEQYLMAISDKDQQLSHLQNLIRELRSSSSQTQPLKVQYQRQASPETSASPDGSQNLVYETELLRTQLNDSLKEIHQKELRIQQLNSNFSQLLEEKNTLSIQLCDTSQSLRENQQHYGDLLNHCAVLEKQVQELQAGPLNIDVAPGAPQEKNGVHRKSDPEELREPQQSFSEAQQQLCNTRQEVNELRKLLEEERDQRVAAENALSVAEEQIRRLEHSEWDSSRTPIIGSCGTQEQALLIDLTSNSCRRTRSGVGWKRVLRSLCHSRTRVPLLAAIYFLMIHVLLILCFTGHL
Assay: competitive isoTOP-ABPP
Type: binding
Settings: Q14789_K103; 50 uM, 231 sol, in vitro
ASSAY_METRIC: R value (DMSO/fragment) for probe 1 labeling

# MOLECULE, RECORDED_RESULT
records = [
    ("O=C(CCc1cn(-c2ccccc2)nc1-c1ccccc1)Oc1c(F)c(F)c(F)c(F)c1F [fragment 19]", 0.9),
    ("O=C(Oc1c(F)c(F)c(F)c(F)c1F)C(c1ccccc1)c1ccccc1 [fragment 20, Pentafluorophenyl 2,2-diphenylacetate]", 1.0),
    ("Cn1cc(CC(=O)Oc2c(F)c(F)c(F)c(F)c2F)c2ccccc21 [fragment 22]", 1.0),
    ("O=C(Oc1c(F)c(F)c(F)c(F)c1F)c1cc(C(F)(F)F)cc(C(F)(F)F)c1 [fragment 21]", 1.0),
    ("COc1cc(CCC(=O)Oc2c(F)c(F)c(F)c(F)c2F)cc(OC)c1OC [fragment 23]", 1.0),
]

----------
Target: TRMT10C Mitochondrial ribonuclease P protein 1 (Homo sapiens, UniProt Q7L0Y3)
Construct: isoTOP-ABPP experiments performed in cell lysates (in vitro); endogenous in cells; host or cells: soluble proteome of human cancer cell lines (MDA-MB-231; Ramos and Jurkat also prepared)
Sequence (Q7L0Y3 40-403): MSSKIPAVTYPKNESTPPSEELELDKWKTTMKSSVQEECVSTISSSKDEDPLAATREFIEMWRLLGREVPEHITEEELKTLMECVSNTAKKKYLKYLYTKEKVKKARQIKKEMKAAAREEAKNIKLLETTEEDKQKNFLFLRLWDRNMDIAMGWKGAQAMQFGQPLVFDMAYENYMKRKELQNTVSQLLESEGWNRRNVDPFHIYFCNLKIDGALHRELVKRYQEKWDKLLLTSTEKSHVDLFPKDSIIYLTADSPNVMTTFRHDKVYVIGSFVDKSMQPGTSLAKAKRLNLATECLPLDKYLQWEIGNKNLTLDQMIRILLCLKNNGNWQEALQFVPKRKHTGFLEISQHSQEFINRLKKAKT
Experiment: competitive isoTOP-ABPP
Assay type: binding
Conditions: 50 uM, 231 sol, in vitro
ASSAY_METRIC: isoTOP-ABPP reactivity ratio at lysine Q7L0Y3_K325

# COMPOUND, RECORDED_RESULT
records = [
    ("O=C(Oc1c(F)c(F)c(F)c(F)c1F)C1CCN(C(=O)OCc2ccccc2)CC1 [fragment 24]", 1.4),
    ("O=C(Oc1c(F)c(F)c(F)c(F)c1F)c1ccc2ccccc2n1 [fragment 25]", 1.1),
    ("COc1cc(CCC(=O)Oc2ccc([N+](=O)[O-])cc2[N+](=O)[O-])cc(OC)c1OC [fragment 33]", 0.9),
    ("O=C(CCc1cn(-c2ccccc2)nc1-c1ccccc1)Oc1ccc([N+](=O)[O-])cc1[N+](=O)[O-] [fragment 29]", 0.7),
    ("Cn1cc(CC(=O)Oc2ccc([N+](=O)[O-])cc2[N+](=O)[O-])c2ccccc21 [fragment 32]", 1.0),
    ("O=C(Oc1ccc([N+](=O)[O-])cc1[N+](=O)[O-])C(c1ccccc1)c1ccccc1 [fragment 30, 2,4-Dinitrophenyl 2,2-diphenylacetate]", 1.1),
    ("O=C(Oc1ccc([N+](=O)[O-])cc1[N+](=O)[O-])c1cc(C(F)(F)F)cc(C(F)(F)F)c1 [fragment 31]", 1.1),
]

----------
Target: TPD52L2 Tumor protein D54 (Homo sapiens)
Construct: isoTOP-ABPP experiments performed in cell lysates (in vitro); endogenous in cells; host or cells: MDA-MB-231 soluble lysate
Sequence (O43399 whole entry): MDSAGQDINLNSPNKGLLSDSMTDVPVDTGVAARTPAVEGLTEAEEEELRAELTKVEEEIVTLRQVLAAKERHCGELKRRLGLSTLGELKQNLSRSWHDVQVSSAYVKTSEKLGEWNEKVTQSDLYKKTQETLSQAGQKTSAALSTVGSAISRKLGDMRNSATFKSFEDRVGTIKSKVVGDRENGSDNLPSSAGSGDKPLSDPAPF
Test: competitive isoTOP-ABPP
Type: binding
Details: 50 uM_231_sol_in vitro
ASSAY_METRIC: isoTOP-ABPP ratio, lysine O43399_K90

Check out these entries, answers already filled in.
# COMPOUND, RECORDED_RESULT
rows = [
    ("N#Cc1ccc(C(=O)Oc2ccc([N+](=O)[O-])cc2[N+](=O)[O-])cc1 [fragment 44, 2,4-Dinitrophenyl 4-cyanobenzoate]", 1.1),
    ("O=C(Oc1c(F)c(F)cc(F)c1F)c1cc(C(F)(F)F)cc(C(F)(F)F)c1", 1.8),
    ("O=C(CCc1ccc2c(c1)OCO2)Oc1ccc([N+](=O)[O-])cc1[N+](=O)[O-]", 1.5),
]

P. O=C(Oc1c(F)c(F)c(C(F)(F)F)c(F)c1F)c1cc(C(F)(F)F)cc(C(F)(F)F)c1
Q. NC(=O)c1cc(C(F)(F)F)cc(C(F)(F)F)c1 [fragment 51, reference compound]
Endpoint returns whichever of P and Q has the numerically higher isoTOP-ABPP ratio, lysine O43399_K90. Write the label of whichever entry you select. P

----------
Target: WARS Tryptophan--tRNA ligase, cytoplasmic (Homo sapiens)
Construct: isoTOP-ABPP experiments performed in cell lysates (in vitro); endogenous in cells; host or cells: soluble proteome of human cancer cell lines (MDA-MB-231; Ramos and Jurkat also prepared)
Sequence (P23381 1-471): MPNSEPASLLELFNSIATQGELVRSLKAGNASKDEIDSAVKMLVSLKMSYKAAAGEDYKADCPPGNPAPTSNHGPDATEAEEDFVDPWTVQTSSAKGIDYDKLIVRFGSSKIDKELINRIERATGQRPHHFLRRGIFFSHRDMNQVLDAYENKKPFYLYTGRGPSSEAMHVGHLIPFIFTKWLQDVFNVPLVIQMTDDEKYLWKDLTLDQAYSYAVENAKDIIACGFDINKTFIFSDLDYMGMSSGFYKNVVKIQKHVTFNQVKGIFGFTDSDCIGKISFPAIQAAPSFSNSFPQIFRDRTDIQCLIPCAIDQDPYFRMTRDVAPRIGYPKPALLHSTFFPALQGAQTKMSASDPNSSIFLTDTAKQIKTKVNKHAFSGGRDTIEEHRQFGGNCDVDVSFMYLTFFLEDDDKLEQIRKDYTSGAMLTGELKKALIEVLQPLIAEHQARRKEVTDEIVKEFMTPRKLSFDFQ
Assay: competitive isoTOP-ABPP
Type: binding
Conditions: P23381_K256; 50 uM, 231 sol, in vitro
ASSAY_METRIC: R value (DMSO/fragment) for probe 1 labeling

# COMPOUND, RECORDED_RESULT
data = [
    ("O=C(CCc1cn(-c2ccccc2)nc1-c1ccccc1)Oc1c(F)c(F)c(F)c(F)c1F [fragment 19]", 1.2),
    ("Cn1cc(CC(=O)Oc2c(F)c(F)c(F)c(F)c2F)c2ccccc21 [fragment 22]", 1.0),
    ("O=C(Oc1c(F)c(F)c(F)c(F)c1F)c1cc(C(F)(F)F)cc(C(F)(F)F)c1 [fragment 21]", 1.1),
    ("O=C(Oc1c(F)c(F)c(F)c(F)c1F)C(c1ccccc1)c1ccccc1 [fragment 20, Pentafluorophenyl 2,2-diphenylacetate]", 1.3),
]
